All values here come from ChEMBL document CHEMBL1938376.

Test system: Leishmania infantum
Test: Antiparasitic activity against amastigotes of Leishmania infantum infected in mouse peritoneal macrophages after 5 days using giemsa staining by microscopic analysis
Type: functional, organism-based
Conditions: Leishmania infantum, 120 h
Recorded measurements of IC50, one per entry

- compound: "COC(=O)C1=NN(c2ccccc2)[C@@H]2N1c1ccccc1N1C(C(=O)OC)=NN(c3ccccc3)[C@@]21C (racemic)"
  studySystem: "Leishmania infantum"
  IC50, µM: 64
- compound: "COC(=O)C1=NN(c2ccccc2)C2C3N(c4ccccc4)N=C(C(=O)OC)N3c3[nH]c(-c4ccccc4)cc3N12 (centres undefined)"
  studySystem: "Leishmania infantum"
  IC50, µM: 32.5
- compound: "COC(=O)C1=NN(c2ccccc2)C2=CNc3c(C)cccc3N21"
  studySystem: "Leishmania infantum"
  IC50, µM: 64
- compound: "CCOC(=O)C1=NN(c2ccc(Cl)cc2)C2C3N(c4ccc(Cl)cc4)N=C(C(=O)OCC)N3c3ccccc3N12 (stereo in doubt; 4f)"
  studySystem: "Leishmania infantum"
  IC50, µM: 64
- compound: "CC(=O)C1=NN(c2ccccc2)C2C3N(c4ccccc4)N=C(C(C)=O)N3c3ccccc3N12 (stereo in doubt; 4a)"
  studySystem: "Leishmania infantum"
  IC50, µM: 32
- compound: "COC(=O)C1=NN(c2ccccc2)C2C3N(c4ccccc4)N=C(C(=O)OC)N3c3ccccc3N12 (stereo in doubt; 4d)"
  studySystem: "Leishmania infantum"
  IC50, µM: 64
- compound: "COC(=O)C1=NN(c2ccc(Cl)cc2)C2(C1)Nc1ccccc1N1C(C(=O)OC)=NN(c3ccc(Cl)cc3)C12 (racemic)"
  studySystem: "Leishmania infantum"
  IC50, µM: 64
- compound: "C[C@]12[C@@H]3N(c4ccccc4)N=C(C(=O)c4ccccc4)N3c3ccccc3N1C(C(=O)c1ccccc1)=NN2c1ccccc1 (racemic)"
  studySystem: "Leishmania infantum"
  IC50, µM: 8
- compound: "CCOC(=O)C1=NN(c2ccc(Cl)cc2)[C@@H]2N1c1ccccc1N1C(C(=O)OCC)=NN(c3ccc(Cl)cc3)[C@@]21C (racemic)"
  studySystem: "Leishmania infantum"
  IC50, µM: 64

---

Recorded measurements of pIC50, one per entry
Test system: Trypanosoma cruzi
Assay: Antiparasitic activity against nifurtimox-sensitive amastigotes of Trypanosoma cruzi Tulahuen expressing LacZ gene infected in human MRC5 cells using chlorophenolred b-Dgalacto-pyranoside as substrate by colorimetric method
Format: functional, organism-based
Conditions: Trypanosoma cruzi, Tulahuen, MRC5
pIC50: −log10 of the molar value.

- compound: "C1=NN(c2ccccc2)C2C3N(C=NN3c3ccccc3)c3ccccc3N12 (stereo not given)"
  pIC50: 4.19
- compound: "CC(=O)C1=NN(c2ccccc2)[C@@H]2N1c1ccccc1N1C(C(C)=O)=NN(c3ccccc3)[C@@]21C (racemic)"
  pIC50: 4.47
- compound: "COC(=O)C1=NN(c2ccccc2)C2=CNc3c(C)cccc3N21"
  pIC50: 4.19
- compound: "COC(=O)C1=NN(c2ccc(Cl)cc2)C2C3N(c4ccc(Cl)cc4)N=C(C(=O)OC)N3c3c(C)cccc3N12 (racemic)"
  pIC50: 4.19
- compound: "COC(=O)C1=NN(c2ccccc2)C2=CN=C3NC(c4ccccc4)=CC3N21 (stereo not given)"
  pIC50: 4.19
- compound: "O=C(C1=NN(c2ccccc2)C2C3N(c4ccccc4)N=C(C(=O)c4ccccc4)N3c3ccccc3N12)c1ccccc1 (stereo not given)"
  pIC50: 4.19
- compound: "CCOC(=O)C1=NN(c2ccc(Cl)cc2)[C@@H]2N1c1ccccc1N1C(C(=O)OCC)=NN(c3ccc(Cl)cc3)[C@@]21C (racemic)"
  pIC50: 4.19
- compound: "C1=C(c2ccccc2)NC2=NC=C3N(c4ccccc4)N=C(c4ccccc4)N3C12 (stereo not given)"
  pIC50: 4.19
- compound: "C[C@]12[C@@H]3N(c4ccccc4)N=C(C(=O)c4ccccc4)N3c3ccccc3N1C(C(=O)c1ccccc1)=NN2c1ccccc1 (racemic)"
  pIC50: 5.00
- compound: "CCOC(=O)C1=NN(c2ccc(Cl)cc2)C2C3N(c4ccc(Cl)cc4)N=C(C(=O)OCC)N3c3[nH]c(-c4ccccc4)cc3N12 (stereo not given)"
  pIC50: 4.39
- compound: "COC(=O)C1=NN(c2ccccc2)C2C3N(c4ccccc4)N=C(C(=O)OC)N3c3[nH]c(-c4ccccc4)cc3N12 (stereo not given)"
  pIC50: 4.19
- compound: "COC(=O)C1=NN(c2ccccc2)[C@@H]2N1c1ccccc1N1C(C(=O)OC)=NN(c3ccccc3)[C@@]21C (racemic)"
  pIC50: 5.37
- compound: "CC(=O)C1=NN(c2ccccc2)C2C3N(c4ccccc4)N=C(C(C)=O)N3c3[nH]c(-c4ccccc4)cc3N12 (stereo not given)"
  pIC50: 4.19
- compound: "COC(=O)C1=NN(c2ccc(Cl)cc2)C2(C1)Nc1ccccc1N1C(C(=O)OC)=NN(c3ccc(Cl)cc3)C12 (racemic)"
  pIC50: 4.19
- compound: "COC(=O)C1=NN(c2ccccc2)C2C3N(c4ccccc4)N=C(C(=O)OC)N3c3ccccc3N12 (stereo in doubt; 4d)"
  pIC50: 4.19
